// provenance: ChEMBL document CHEMBL5257144

- tested-on: UniProtKB Q96SB4
- Sequence (Q96SB4 whole entry): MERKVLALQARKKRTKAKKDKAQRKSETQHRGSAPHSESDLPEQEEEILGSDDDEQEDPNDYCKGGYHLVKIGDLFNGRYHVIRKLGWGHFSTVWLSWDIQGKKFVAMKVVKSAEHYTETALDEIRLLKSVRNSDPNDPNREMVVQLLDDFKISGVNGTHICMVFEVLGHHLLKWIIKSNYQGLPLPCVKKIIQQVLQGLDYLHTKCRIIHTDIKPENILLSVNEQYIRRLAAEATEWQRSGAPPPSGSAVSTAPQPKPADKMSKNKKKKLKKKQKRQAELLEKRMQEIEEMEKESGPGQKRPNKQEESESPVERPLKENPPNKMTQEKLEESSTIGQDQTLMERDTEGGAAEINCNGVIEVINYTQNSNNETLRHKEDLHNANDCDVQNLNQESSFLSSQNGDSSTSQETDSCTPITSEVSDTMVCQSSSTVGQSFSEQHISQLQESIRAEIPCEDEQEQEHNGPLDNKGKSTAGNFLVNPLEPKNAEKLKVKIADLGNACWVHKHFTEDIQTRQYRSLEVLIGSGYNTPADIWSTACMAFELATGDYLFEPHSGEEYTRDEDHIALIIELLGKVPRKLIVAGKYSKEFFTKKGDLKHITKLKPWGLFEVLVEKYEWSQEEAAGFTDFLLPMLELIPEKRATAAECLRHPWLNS
recorded-metric: IC50

CN(c1ncccc1CNc1ccc(-c2nc3cc(Cl)ccc3[nH]2)nc1)S(C)(=O)=O | < 0.05 µM
